Reference source for all entries: patent US6248367A

- Test description: in vitro
- Study conditions: rat, erythrocytes
Readout name: hemolysis at 2 h (%)
# unit: % | format: bare number

Task: Any idea what its hemolysis at 2 h is? The molecule is CC1=CC(=O)c2ccccc2C1=O [menadione, Menadione]
Result: 65.3

----------
- Test description: in vitro
- Study conditions: rat, erythrocytes
- Method: Cytotoxicity of the bovine excretion extracts according to the present invention was tested by measuring degree of hemolysis of erythrocytes. […] Then, absorbance was read at 540 nm to determine degree of hemolysis. Degree of hemolysis (%) is calculated as follows: [formula] Erythrocytes treated with menadione (positive control) were measured on degree of hemolysis, for the purpose of comparison with the bovine excretion extracts prepared in example 1. […]
Readout name: hemolysis at 0 h (%)
# unit: % | format: bare number

Task: Any idea what its hemolysis at 0 h is? The molecule is CC1=CC(=O)c2ccccc2C1=O [menadione, Menadione]
Result: 0
